Data origin, for the record: paper PMC5340008

# measurementTarget: TEM-1 β-lactamase (UniProt P62593 24-286)
# Sequence (P62593 24-286): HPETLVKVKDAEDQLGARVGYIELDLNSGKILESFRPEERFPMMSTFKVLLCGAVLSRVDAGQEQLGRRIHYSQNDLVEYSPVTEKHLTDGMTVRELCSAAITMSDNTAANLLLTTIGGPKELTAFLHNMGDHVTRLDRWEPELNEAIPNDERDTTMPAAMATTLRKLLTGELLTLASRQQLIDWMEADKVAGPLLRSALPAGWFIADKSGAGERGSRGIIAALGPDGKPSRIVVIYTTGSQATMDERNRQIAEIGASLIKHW
# measurementNotes: β-lactamase inhibition assay (nitrocefin hydrolysis, Morrison tight-binding fit); increasing concentrations of BLIP incubated with 1 nM β-lactamase for 1 h at room temperature in 50 mM sodium phosphate pH 7.0; nitrocefin added at its Km, initial velocity at 482 nm; Ki calculated from Ki app
# testParameters: both partners purified
Provide the reported pKi of each item.
Remember, pKi is on a log scale: it is -log10 of the molar concentration.

What does the record list as pKi for BLIP [change] (natural protein) AGVMTGAKFTQIQFGMTRQQVLDIAGAENCETGGSFGDSIHCRGHAAGDGYAYATFGFTSAAADAKVDSKSQEKLLAPSAPTLTLAKFNQVTVGMTRAQVLATVGQGSCTTWSEYYPAYPSTAGVTLSLSCFDVDGYSSTGFYRGSAHLWFTDGVLQGKRQWDLV ?
9.40

Proceed to BLIP [change] (natural protein) AGVMTGAKFTQIQFGMTRQQVLDIAGAENCETGGSFGDSIHCRGHAAGDTYAYATFGFTSAAADAKVDSKSQEKLLAPSAPTLTLAKFNQVTVGMTRAQVLATVGQGSCTTWSEYYPAYPSTAGVTLSLSCFDVDGYSSTGFYRGSAHLWFTDGVLQGKRQWDLV
8.60

Another binder to check: BLIP [change] (natural protein) AGVMTGAKFTQIQFGMTRQQVLDIAGAENCETGGSFGDSIHCRGHAAGDVYAYATFGFTSAAADAKVDSKSQEKLLAPSAPTLTLAKFNQVTVGMTRAQVLATVGQGSCTTWSEYYPAYPSTAGVTLSLSCFDVDGYSSTGFYRGSAHLWFTDGVLQGKRQWDLV
8.46

Entry BLIP [change] (natural protein) AGVMTGAKFTQIQFGMTRQQVLDIAGAENCETGGSFGDSIHCRGHAAGDSYAYATFGFTSAAADAKVDSKSQEKLLAPSAPTLTLAKFNQVTVGMTRAQVLATVGQGSCTTWSEYYPAYPSTAGVTLSLSCFDVDGYSSTGFYRGSAHLWFTDGVLQGKRQWDLV please
8.96

Please do the same for BLIP [change] (natural protein) AGVMTGAKFTQIQFGMTRQQVLDIAGAENCETGGSFGDSIHCRGHAAGDNYAYATFGFTSAAADAKVDSKSQEKLLAPSAPTLTLAKFNQVTVGMTRAQVLATVGQGSCTTWSEYYPAYPSTAGVTLSLSCFDVDGYSSTGFYRGSAHLWFTDGVLQGKRQWDLV as well.
8.11
